Assay: LogP by HPLC on reversed phase columns (EEC directive 79/831 Annex V.A8)
Format: physicochemical
Measure name: Log P[a]
Lab note: record just the number, no unit beside it.

Take a look at these entries with their results.
* CC(C)OC(=O)C1(C(N)=S)CCN(C(=O)Cn2nc(C(F)F)cc2C(F)F)CC1 [II-9] | 2.52
* C=CCOC(=O)C1(c2nc(C3=NOC(c4c(Cl)cccc4OS(C)(=O)=O)C3)cs2)CCN(C(=O)Cn2nc(C(F)F)cc2C(F)F)CC1 (stereo not shown) [Example I-41] | 3.80
* Cc1cc(C(F)(F)F)nn1CC(=O)N1CCC(C#N)(C(=O)O)CC1 [IV-14] | 1.50

Consider now this further compound.
For CC(C)=CCNC(=O)C1(C#N)CCN(C(=O)Nc2ccc(F)cc2)CC1 [IV-44] , what is its reported Log P[a]?
2.16

---

The reader will find reported Log P[a] values listed item by item below.
Test: LogP by HPLC on reversed phase columns (EEC directive 79/831 Annex V.A8)
Assay type: physicochemical
Lab note: record just the number, no unit beside it.

* CCOC(=O)C1(c2nc(C3=NOC(c4c(Cl)cccc4OS(C)(=O)=O)C3)cs2)CCN(C(=O)Cn2nc(C(F)F)cc2C(F)F)CC1 (centres unmarked) | 3.71

For COC(=O)C1(c2nc(C3=NOC(c4ccccc4)C3)cs2)CCN(C(=O)Cn2nc(C(F)(F)F)cc2C)CC1 (centres unmarked) , what is its reported Log P[a]?
3.55

For COC(=O)C1(C(N)=S)CCN(C(=O)Nc2cc(C(F)F)ccc2C(F)F)CC1 , what is its reported Log P[a]?
2.23

For CC(C)=CCN(C)C(=O)C1(C#N)CCN(C(=O)Nc2ccccc2)CC1 , what is its reported Log P[a]?
2.61

For COC(=O)C1(c2nc(C3=NOC(c4ccccc4)C3)cs2)CCN(C(=O)Cn2nc(C(F)F)cc2C)CC1 (centres unmarked) , what is its reported Log P[a]?
3.17

For COC(=O)C1(C#N)CCN(C(=O)Cn2nc(C(F)F)cc2C)CC1 , what is its reported Log P[a]?
1.89

For COC(=O)C1(C(N)=S)CCN(C(=O)Nc2cn(C(F)F)nc2C)CC1 , what is its reported Log P[a]?
1.30

For CS(=O)(=O)Oc1ccccc1C1CC(c2csc(C3(C(=O)OC4CCOC4)CCN(C(=O)Cn4nc(C(F)F)cc4C(F)F)CC3)n2)=NO1 (centres unmarked) , what is its reported Log P[a]?
3.21

---

Test: LogP by HPLC on reversed phase columns (EEC directive 79/831 Annex V.A8)
Assay type: physicochemical
Details: Table 3, compounds of formula (VI); LC-UV, acidic range, 0.1% formic acid in water and acetonitrile as eluent; read-out: Log P[a]
Measure name: chromatographic logP
Lab note: record just the number, no unit beside it.

For COC(=O)C1(C#N)CCN(C(=O)CCl)CC1 , what is its reported chromatographic logP?
1.27

---

The reader will find reported Log P[a] values listed item by item below.
Assay: LogP by HPLC on reversed phase columns (EEC directive 79/831 Annex V.A8)
Assay type: physicochemical
Lab note: record just the number, no unit beside it.

Take a look at these entries with their results.
* COC(=O)C1(c2nc(C3=NOC(c4ccccc4OS(C)(=O)=O)C3)cs2)CCN(C(=O)Nc2cn(C)nc2C(F)F)CC1 (stereo not shown) [Example I-19] | 2.53
* CCOC(=O)C1(c2nc(C3=NOC(c4c(F)cccc4F)C3)cs2)CCN(C(=O)Cn2nc(C(F)F)cc2C(F)F)CC1 (stereo not shown) [Example I-24] | 3.73
* CS(=O)(=O)Oc1cccc(Cl)c1C1CC(c2csc(C3(C(=O)OC4CCOC4)CCN(C(=O)Cn4nc(C(F)F)cc4C(F)F)CC3)n2)=NO1 (stereo not shown) [Example I-53] | 3.39

For COC(=O)C1(c2nc(C3=NOC(c4c(F)cccc4F)C3)cs2)CCN(C(=O)Cn2nc(C)cc2C(F)F)CC1 (stereo not shown) [Example I-75] , what is its reported Log P[a]?
3.11

---

Assay: LogP by HPLC on reversed phase columns (EEC directive 79/831 Annex V.A8)
Type: physicochemical
// classify: if (Log P[a] < 3) y else n

Identify whether the compound C#CCOc1ccc(F)c(F)c1C1CC(c2csc(C3(C(=O)OC)CCN(C(=O)Nc4cc(C(F)(F)F)nn4C)CC3)n2)=NO1 (stereo not shown) [Example I-81] records Log P[a] below 3.
n

Identify whether the compound CCOC(=O)C1(C(N)=S)CCN(C(=O)Cn2nc(C(F)F)cc2C(F)F)CC1 [II-10] records Log P[a] below 3.
y

Identify whether the compound CC(C)=CCN(C)C(=O)C1(C#N)CCN(C(=O)Nc2ccc(F)cc2)CC1 [IV-40] records Log P[a] below 3.
y

---

Experiment: LogP by HPLC on reversed phase columns (EEC directive 79/831 Annex V.A8)
Type: physicochemical
# if value of Log P[a] reaches 3, tag met; if it stays below, tag not met

Solved entries:
• C#CCOc1ccccc1C1CC(c2csc(C3(C(=O)OCC)CCN(C(=O)Cn4nc(C(F)F)cc4C(F)F)CC3)n2)=NO1 (stereo not shown) = met
• CCCCNC(=O)C1(C#N)CCN(C(=O)Nc2ccccc2)CC1 = not met
• CC(C)(C)OC(=O)C1(C#N)CCN(C(=O)Nc2ccc(Cl)c(C(F)(F)F)c2)CC1 = met
• COC(=O)C1(C(N)=S)CCN(C(=O)Cn2nc(C(F)(F)F)cc2C)CC1 = not met
• COC(=O)C1(c2nc(C3=NOC(c4c(Cl)cccc4OS(C)(=O)=O)C3)cs2)CCN(C(=O)Cn2nc(C(F)F)cc2C)CC1 (stereo not shown) = met

# check: Log P[a] of O=C(Cn1nc(C(F)F)cc1C(F)F)N1CCC(C(=O)OCc2ccccc2)(c2nc(C3=NOC(c4c(F)cccc4F)C3)cs2)CC1 (stereo not shown) is greater than or equal to 3
met

# check: Log P[a] of COC(=O)C1(c2nc(C3=NOC(c4c(Cl)cccc4OS(C)(=O)=O)C3)cs2)CCN(C(=O)Cn2nc(C(F)(F)F)cc2C)CC1 (stereo not shown) is greater than or equal to 3
met

# check: Log P[a] of CCC(C)NC(=O)C1(C#N)CCN(C(=O)Nc2ccccc2)CC1 (stereo not shown) is greater than or equal to 3
not met

# check: Log P[a] of CC(C)(C)OC(=O)C1(C#N)CCN(C(=S)Nc2cccc(Cl)c2)CC1 is greater than or equal to 3
met

# check: Log P[a] of C#CCOc1ccccc1C1CC(c2csc(C3(C(=O)OCc4ccccc4)CCN(C(=O)Cn4nc(C(F)F)cc4C(F)F)CC3)n2)=NO1 (stereo not shown) is greater than or equal to 3
met

# check: Log P[a] of CC(C)OC(=O)C1(c2nc(C3=NOC(c4ccccc4)C3)cs2)CCN(C(=O)Cn2nc(C(F)F)cc2C(F)F)CC1 (stereo not shown) is greater than or equal to 3
met

# check: Log P[a] of N#CC1(C(=O)O)CCN(C(=S)Nc2ccc(OC(F)(F)F)cc2)CC1 is greater than or equal to 3
not met

---

Experiment: LogP by HPLC on reversed phase columns (EEC directive 79/831 Annex V.A8)
Assay type: physicochemical
The reader will find reported Log P[a] values listed item by item below.
Lab note: record just the number, no unit beside it.

Take a look at these entries with their results.
• COC(=O)C1(c2nc(C3=NOC(c4ccccc4OS(C)(=O)=O)C3)cs2)CCN(C(=O)Nc2cc(C(F)(F)F)nn2C)CC1 (stereo not shown) [Example I-79] = 3.00
• COC(=O)C1(c2nc(C3=NOC(c4ccccc4OS(C)(=O)=O)C3)cs2)CCN(C(=O)Cn2nc(C(F)F)cc2C)CC1 (stereo not shown) [Example I-64] = 2.96
• C#CCOc1ccccc1C1CC(c2csc(C3(C(=O)OC)CCN(C(=O)Nc4cc(C(F)F)nn4C)CC3)n2)=NO1 (stereo not shown) [Example I-15] = 3.00

For C#CCOc1ccc(F)c(F)c1C1CC(c2csc(C3(C(=O)OC)CCN(C(=O)Nc4cn(C(F)F)nc4C)CC3)n2)=NO1 (stereo not shown) [Example I-18] , what is its reported Log P[a]?
3.04
